# Protocol: Drug repurposing screens with cells derived from glioblastoma tumor samples (AID 1345199); also: % is scaled to controls: 0 for no effect and ±100 for the full control effect; nearly all actives have a fitted effect of over 40% in size
# Experimental conditions: GBM patient neurospheres viability, ATP luminescence, 48 h; at 45.9 µM (top of the series); tumour line D
# Protocol: CD133+ cells were isolated from GBM patient biopsies and cultured as neurospheres. Neurospheres from four patients were used to screen the NCATS pharmaceutical collection (NPC) library of approved drugs and bioactive compounds. […] The neurospheres were incubated with drugs for 48 hours in 1536-well format, then assayed with an ATP content cell viability assay. […]
Inconclusive results are not listed.
For each entry below, report its activity, negative = cell killing value.
The answer is to be given in %; state only the numeric part.

Query: Using known records, supply activity, negative = cell killing for O=C(O)c1ccc[n+]([O-])c1
Response: 12.2

Query: In one line, give reported activity, negative = cell killing of the entry CCOC(N)=O .
Response: 19.2

Query: Identify measured activity, negative = cell killing corresponding to O=C(OOC(=O)c1ccccc1)c1ccccc1
Response: -7.12

Query: Note activity, negative = cell killing for the molecule shown: O=C1c2ccccc2S(=O)(=O)N1CCCCN1CCN(c2ncccn2)CC1
Response: -19.1

Query: State its activity, negative = cell killing for this molecule: COc1cc(O)cc(O)c1
Response: -4.84

Query: Find the measured activity, negative = cell killing of NC(=O)CCCCC1CCSS1 (configuration not stated) and report it.
Response: 6.2

Query: Given COc1ccccc1Oc1c(NS(=O)(=O)c2ccc(C(C)(C)C)cc2)nc(-c2ncccn2)nc1OCCO , respond with its activity, negative = cell killing.
Response: -7.18

Query: Give the measured activity, negative = cell killing for O=C1c2ccccc2C(=O)C1c1ccc(Br)cc1
Response: -25.8

Query: Return activity, negative = cell killing for the following molecule: CCc1nnc(NS(=O)(=O)c2ccc(N)cc2)s1
Response: -9.53

Query: Please indicate activity, negative = cell killing recorded for Cc1c(NC(C)C)c(=O)n(-c2ccccc2)n1C
Response: -9.1

Query: Identify activity, negative = cell killing associated with the molecule COc1cc(C(=O)NCCCCCC(=O)O)cc(OC)c1OC
Response: -8.75

Query: Using known records, supply activity, negative = cell killing for NS(=O)(=O)c1cc(-c2nn[nH]n2)c(NCc2cccs2)cc1Cl
Response: -1.64

Query: Specify activity, negative = cell killing for O=C(O)Cn1c(C(=O)Nc2nc(-c3ccccc3Cl)cs2)cc2ccccc21 and stop.
Response: -18.1

Query: Kindly indicate its recorded activity, negative = cell killing. Item: C[C@]1(Cn2ccnn2)[C@H](C(=O)O)N2C(=O)C[C@H]2S1(=O)=O
Response: -15.1

Query: Please look at this molecule and report its activity, negative = cell killing: CC(=O)Nc1ccc(C(=O)O)cc1
Response: 14.1

Query: Provide measured activity, negative = cell killing value, entry: NC(=O)NS(=O)(=O)c1ccc(N)cc1
Response: 9.92

Query: Consider the molecule C/C=C1\[C@H]2C=C(C)C[C@]1(N)c1ccc(=O)[nH]c1C2 . State its measured activity, negative = cell killing.
Response: -6.44

Query: Look up activity, negative = cell killing of O=C(O)c1ccccc1OP(=O)(O)O and report it.
Response: 13.5

Query: Read the entry Cc1ccsc1C(=CCCN1CCC[C@@H](C(=O)O)C1)c1sccc1C and write its reported activity, negative = cell killing.
Response: -7.39

Query: In one line, give reported activity, negative = cell killing of the entry Cc1ccc(S(=O)(=O)NC(=O)NC2CCCCC2)cc1 .
Response: 4.18

Query: Respond only with activity, negative = cell killing recorded for Cc1cc(NC(=O)C2=C(O)c3ccccc3S(=O)(=O)N2C)no1
Response: -8.1

Query: Entry N[C@@H](Cc1ccc(O)cc1)C(=O)O needs its activity, negative = cell killing filled in; supply it.
Response: -14.6

Query: Write down activity, negative = cell killing measured for item Nc1ncnc2c1ncn2[C@@H]1O[C@H](COP(=O)(O)O)[C@@H](O)[C@H]1O
Response: 20.2

Query: // fetch activity, negative = cell killing given entry COc1ccc(C(=O)N2CCN(CC(=O)N3CCOCC3)CC2)cc1
Response: -14.5

Query: Respond only with activity, negative = cell killing recorded for O=c1[nH]cnc2nc[nH]c12
Response: 15.6

Query: Please list activity, negative = cell killing recorded for the molecule CC(N)CCCC(C)(C)O (configuration not stated)
Response: -3.88

Query: Give a short answer stating reported activity, negative = cell killing for NS(=O)(=O)c1ccc(C(=O)O)cc1 .
Response: 4.61

Query: Give the value of activity, negative = cell killing reported for the following: CCN1CC(CCN2CCOCC2)C(c2ccccc2)(c2ccccc2)C1=O (configuration not stated)
Response: -11.4

Query: Write down activity, negative = cell killing measured for item CCCCCCCCCCC(CO)CCCCCCCC (configuration not stated)
Response: -0.979

Query: Identify measured activity, negative = cell killing associated with O=C(CCBr)N1CCN(C(=O)CCBr)CC1
Response: -7.7

Query: Query activity, negative = cell killing for NNC(=O)CP(=O)(c1ccccc1)c1ccccc1
Response: -15

Query: For the molecule CC(=O)N(CC(O)CO)c1c(I)c(C(=O)NCC(O)CO)c(I)c(C(=O)NCC(O)CO)c1I (configuration not stated) , give its reported activity, negative = cell killing.
Response: -8.17

Query: Indicate the recorded activity, negative = cell killing value for this molecule: O=C(O)CNC(=O)c1ccccc1I
Response: 4.71

Query: Query activity, negative = cell killing for CC(=O)N1C[C@H](O)C[C@H]1C(=O)O
Response: 12.1

Query: Please give measured activity, negative = cell killing of the following entry: NC(=O)CC[C@@H](N)C(=O)O
Response: 12.3

Query: Given the molecule O=S1(=O)OC(c2ccc(O)cc2)(c2ccc(O)cc2)c2ccccc21 , write its reported activity, negative = cell killing.
Response: -14.4

Query: Quote activity, negative = cell killing reported for CN1CC(=O)NC1=N please.
Response: -12.2

Query: Consider the molecule CC(=O)OCC(COC(C)=O)OC(C)=O . State its measured activity, negative = cell killing.
Response: 15.4

Query: Hello, please tell me recorded activity, negative = cell killing for this one: Cc1cccc(Nc2ccccc2C(=O)O)c1C
Response: -14.4

Query: Provide measured activity, negative = cell killing value, entry: NC(=O)c1ccc([N+](=O)[O-])cc1Cl
Response: -5.61

Query: Hello, please tell me recorded activity, negative = cell killing for this one: COc1ccc(C(=O)NCc2ccc(OCCN(C)C)cc2)cc1OC
Response: -4.36

Query: Give me measured activity, negative = cell killing, please, for this molecule: C[C@@H](c1ncncc1F)C(O)(Cn1cncn1)c1ccc(F)cc1F (some centres not stated)
Response: -23.3

Query: Name the recorded activity, negative = cell killing of the item O=c1[nH]c(=O)c2ccccc2o1 in your answer.
Response: -4.94

Query: Supply measured activity, negative = cell killing of Nc1c2c(nc3c1CCC3)CCCC2 in your reply.
Response: -13.4

Query: Tell me its activity, negative = cell killing given CCCCCCCC(=O)OCC(O)CO (configuration not stated) as the entry.
Response: -12.6

Query: // fetch activity, negative = cell killing given entry CC(C)NC[C@@H](O)COc1ccc(CC(N)=O)cc1
Response: 5.31

Query: Please list activity, negative = cell killing recorded for the molecule NS(=O)(=O)c1ccc(NC(=O)CCC(=O)O)cc1
Response: 0.766

Query: Fill in reported activity, negative = cell killing for this entry: CC(=O)Nc1ccccc1
Response: -14.5

Query: Please report the measured activity, negative = cell killing for Cc1ccccc1N=Nc1ccc(N=Nc2c(O)ccc3ccccc23)c(C)c1
Response: -2.5

Query: Specify activity, negative = cell killing for CCCCCCCCCCOc1cc2c(=O)c(C(=O)OCC)c[nH]c2cc1OCC and stop.
Response: -20.1

Query: Identify measured activity, negative = cell killing corresponding to C[C@@H](N)C(=O)O
Response: -21.5

Query: Give the reported value of activity, negative = cell killing for this record: CN1C(C)(C)CCCC1(C)C
Response: 3.96

Origin of measurements: PubChem BioAssay (NCATS)
